Origin of values: paper PMC9482650

Study Target: MAGI2_6, Q86UL8
Sequence (Q86UL8 1141-1229): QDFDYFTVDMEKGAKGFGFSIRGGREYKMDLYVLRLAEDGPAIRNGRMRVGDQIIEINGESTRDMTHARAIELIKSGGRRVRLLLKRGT
Experiment Summary: holdup assay
Design: key: below the threshold = too weak to quantify, mostly under pKd 3.1 to 4
Experimental Context: plain residues with an end cap or a label only (N-terminal biotin on a linker: ado-ado)

{"columns": ["Binder", "pKd"],
 "data": [
  ["QGPVETESVV [SLC45A4, Q5BKX6]", 3.55],
  ["TSQESEDTYL [TBC1D10A, Q9BXI6]", 3.98],
  ["TACCHSETVV [TGFA, P01135]", 3.81],
  ["HLRARKSEWV [GJD4, Q96KN9]", 3.85],
  ["PRAEAEDSFL [PDGFRB, P09619]", 4.26],
  ["EVEEFPETSV [TRPV3, Q8NET8]", 4.71],
  ["QSARLWETSI [ADAM22, Q9P0K1]", 4.22],
  ["GSGAVEMESV [AQP6, Q13520]", 3.51],
  ["FNSYSLTGYV [CLDN2, P57739]", 3.72],
  ["PKRSFIESNV [TANC1, Q9C0D5]", 4.09],
  ["PDGQCTVTEV [RNF146, Q9NTX7]", 4.71],
  ["EVNETDDTKM [KCNJ1, P48048]", 3.56]
]}
